The origin of these recorded values is the supplement of paper PMC10127200.

Listed here are compounds together with their documented Euclidean distance.
tested on: A549; test: Euclidean distance of Cell Painting phenotypic profile (signed KS, 77 features) to DMSO centroid (dimensionless distance); 5 or 10 uM (library dependent); higher = stronger phenotypic change vs DMSO (phenoactivity); conditions: 48 h
Note: the reply should be a number with no unit written.

Study these solved cases before continuing.
Compound	Euclidean distance
C=CCNC1=C2C[C@@H](C)C[C@H](OC)[C@H](O)[C@@H](C)/C=C(\C)[C@H](OC(N)=O)[C@@H](OC)/C=C\C=C(/C)C(=O)NC(=CC1=O)C2=O	2.95
Cc1cccc(-c2[nH]ncc2-c2ccc3ncccc3n2)n1	0.733

Need Euclidean distance of CCOC(=O)C1=C(COCCN)NC(C)=C(C(=O)OC)C1c1ccccc1Cl (stereo not drawn) [Amlodipine] , thanks.
0.917

Need Euclidean distance of CN1CCC(CNc2ccc3ncc(-c4cccc(OC(F)(F)F)c4)n3n2)CC1 [SGI-1776 free base] , thanks.
3.26
